- targetSystem: T1, PARD3B_1, Q8TEW8
- T1 sequence (Q8TEW8 196-299, limits assumed, looked up): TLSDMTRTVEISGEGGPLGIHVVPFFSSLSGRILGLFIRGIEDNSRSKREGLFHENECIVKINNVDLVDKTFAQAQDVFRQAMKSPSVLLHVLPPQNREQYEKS
- testDetails: holdup assay
- Parameters: key: below the threshold = too weak to quantify, mostly under pKd 3.1 to 4
- experimentalParameters: plain residues with an end cap or a label only (N-terminal biotin on a linker: ttds)
measuredMetric: pKd

1) QSARYRDTEL [TJP2, Q9UDY2] = below the threshold
2) TVASEKESVM [SLC1A5, Q15758] = 3.61
3) PKTPPTDTSV [KIR3DL3, Q8N743] = below the threshold
4) IDNDTESTAL [ARHGAP17, Q68EM7] = 3.93
5) STLTIFETAL [ABCC4, O15439] = 3.94

# batch: return pKd for each of the 6 binders below
1. GQDSREETQL [KCNT2, Q6UVM3]
2. IYVPEAQTRL [DLGAP4, Q9Y2H0]
3. SRPQRTQTQV [HPV67-E6, A4U7F2]
4. VLRLQSETSV [VANGL1, Q8TAA9]
5. RSLEEEESQL [GRASP, Q7Z6J2]
6. SSRTRRETQL [HPV16-E6, P03126]

1. below the threshold
2. 4.16
3. below the threshold
4. below the threshold
5. 4.28
6. below the threshold

Parameters: items (list). Returns: pKd for each item.
1. SVWLRKETRV [CYSLTR2, Q9NS75]
2. ERKLSSESQV [LRP4, O75096]

below the threshold
below the threshold
